- method_summary: Colour of the compound
- Format: physicochemical
- experimental_context: powder
metric_name: Colour

Please review the entries below; each comes with its answer.
OCc1cc(CO)cc(Nc2ncc3cc(-c4cc(O)ccc4Cl)ccc3n2)c1 [compound 16]    Pale
Cc1cc(Nc2ncc3cc(-c4cc(O)ccc4Cl)ccc3n2)cc(N2CCN(CCO)CC2)c1 [Compound 46]    Pale
OCc1cc(CO)cc(Nc2nc3ccc(-c4cc(O)ccc4Cl)cn3n2)c1 [compound 5]    White
OCc1cc(Nc2ncc3cc(-c4cc(O)ccc4Cl)ccc3n2)ccn1 [Compound 43]    Pale
OCCn1cnc2cc(Nc3ncc4cc(-c5cc(O)ccc5Cl)ccc4n3)ccc21 [Compound 45]    Pale

input: Look up Colour: Oc1ccc(Cl)c(-c2ccc3nc(Nc4ccc(OCCN5CCCC5)nc4)nn3c2)c1 [Compound 25]
output: White
